- Test system: Gamma-aminobutyric acid receptor subunit alpha-2 (Homo sapiens, UniProt P47869)
- Sequence (P47869 whole entry): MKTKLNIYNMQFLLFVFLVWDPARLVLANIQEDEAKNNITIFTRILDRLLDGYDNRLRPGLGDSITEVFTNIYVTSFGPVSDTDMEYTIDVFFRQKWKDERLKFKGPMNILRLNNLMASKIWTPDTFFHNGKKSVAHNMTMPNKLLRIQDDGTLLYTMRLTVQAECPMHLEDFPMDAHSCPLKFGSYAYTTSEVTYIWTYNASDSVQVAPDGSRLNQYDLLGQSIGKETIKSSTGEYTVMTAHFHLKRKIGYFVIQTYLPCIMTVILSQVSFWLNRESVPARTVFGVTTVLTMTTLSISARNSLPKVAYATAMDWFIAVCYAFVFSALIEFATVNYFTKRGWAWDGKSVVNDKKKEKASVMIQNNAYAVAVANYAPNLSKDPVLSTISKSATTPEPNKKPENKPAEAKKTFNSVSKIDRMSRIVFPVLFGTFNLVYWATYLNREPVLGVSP
Reported property: Ki (nM)
Use nM as the unit, but write only the number.

Use these answered entries as a reference point.
[[record]]
structure_string = "CCc1c(C(=O)OC)ncc2[nH]c3cc(OC)c(OC)cc3c12"
reported_property = "Ki"
assay_value = 14.4

[[record]]
structure_string = "COC(=O)c1cc2c(cn1)[nH]c1ccccc12"
reported_property = "Ki"
assay_value = 2.9

[[record]]
structure_string = "O=C1CN=C(c2ccccc2F)c2cc(Cl)ccc2N1CC(F)(F)F"
reported_property = "Ki"
assay_value = 236


Pending compound:
## Task Look up Ki: O=C1CN=C(c2ccccc2Cl)c2cc([N+](=O)[O-])ccc2N1
## Result 1.7
